- tested target: Bcl-2 protein (Recombinant Human Bcl-2 Protein) (Homo sapiens)
- Construct: purchased Novus Biologicals NBP2-34889
- Sequence (P10415 whole entry): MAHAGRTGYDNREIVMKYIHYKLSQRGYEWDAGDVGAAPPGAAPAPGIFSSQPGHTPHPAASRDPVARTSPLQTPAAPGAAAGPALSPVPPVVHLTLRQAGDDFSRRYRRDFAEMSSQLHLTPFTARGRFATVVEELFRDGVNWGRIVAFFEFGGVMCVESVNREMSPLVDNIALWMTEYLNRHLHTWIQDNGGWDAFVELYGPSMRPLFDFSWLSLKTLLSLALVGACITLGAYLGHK
- protocol notes: AS-MS evaluation of binding of the Example 4 mixture library (1200 compounds/well) to Bcl-2, ASMS ratio (%)
- setup conditions: AS-MS, Example 4 mixture library, Bcl-2, replicate n = 2
assay metric: ASMS ratio (%) n = 2

>>> numeric_value("CCOc1cccc(C#Cc2ccccc2C(=O)N2CCN(c3ccc(C(=O)NS(=O)(=O)c4ccc(NCCSc5ccccc5)c(C(F)(F)F)c4)cc3)CC2)c1")
0.0
>>> numeric_value("CCOc1cncc(-c2ccccc2CCC(=O)N2CCN(c3ccc(C(=O)NS(=O)(=O)c4ccc(NCCSc5ccccc5)c(C(F)(F)F)c4)cc3)CC2)c1")
"−1.3"
>>> numeric_value("CCOc1cccc(C#Cc2cncc(C(=O)N3CCN(c4ccc(C(=O)NS(=O)(=O)CCC(F)(F)F)cc4)CC3)c2)c1")
0.0
>>> numeric_value("CCOc1cncc(-c2csc(C(=O)N3CCN(c4ccc(C(=O)NS(=O)(=O)c5ccc(NCCSc6ccccc6)c(C(F)(F)F)c5)nn4)CC3)c2)c1")
0.0
>>> numeric_value("CCOc1cccc(C#Cc2cc(C(=O)N3CCN(c4ccc(C(=O)NS(=O)(=O)c5ccc(NCCSc6ccccc6)c(C(F)(F)F)c5)cc4)CC3)cc(C(F)(F)F)c2)c1")
0.0
>>> numeric_value("CCOc1cccc(C#Cc2ccccc2CN2CCN(c3ccc(C(=O)NS(=O)(=O)CCC(F)(F)F)cc3)CC2)c1")
"−1.5"
>>> numeric_value("CCOc1cncc(C#Cc2cc(C(=O)N3CCN(c4ccc(C(=O)NS(=O)(=O)CCC(F)(F)F)cc4)CC3)cc(C(F)(F)F)c2)c1")
0.0
>>> numeric_value("CCOc1cncc(-c2cc(CN3CCN(c4ccc(C(=O)NS(=O)(=O)CCC(F)(F)F)cc4)CC3)cc(OCC)c2)c1")
0.0
>>> numeric_value("CCOc1cncc(C#Cc2cc(C(=O)N3CCN(c4ccc(C(=O)NS(=O)(=O)c5ccc(NCCSc6ccccc6)c(C(F)(F)F)c5)nn4)CC3)cc(C(F)(F)F)c2)c1")
"−17.7"
>>> numeric_value("CCOc1cccc(-c2ccccc2CN2CCN(c3ccc(C(=O)NS(=O)(=O)c4ccc(NCCSc5ccccc5)c(C(F)(F)F)c4)nn3)CC2)c1")
"−9.0"
>>> numeric_value("CCOc1cccc(-c2cc(CN3CCN(c4ccc(C(=O)NS(=O)(=O)c5ccc(NCCSc6ccccc6)c(C(F)(F)F)c5)cc4)CC3)cc(OCC)c2)c1")
6.3

Where these numbers come from: patent US20250154686A1
